Kindly state pIC50 for each of the entries shown.
- Assayed target: Amine oxidase [flavin-containing] A (Mus musculus, UniProt Q64133)
- Sequence (Q64133 whole entry): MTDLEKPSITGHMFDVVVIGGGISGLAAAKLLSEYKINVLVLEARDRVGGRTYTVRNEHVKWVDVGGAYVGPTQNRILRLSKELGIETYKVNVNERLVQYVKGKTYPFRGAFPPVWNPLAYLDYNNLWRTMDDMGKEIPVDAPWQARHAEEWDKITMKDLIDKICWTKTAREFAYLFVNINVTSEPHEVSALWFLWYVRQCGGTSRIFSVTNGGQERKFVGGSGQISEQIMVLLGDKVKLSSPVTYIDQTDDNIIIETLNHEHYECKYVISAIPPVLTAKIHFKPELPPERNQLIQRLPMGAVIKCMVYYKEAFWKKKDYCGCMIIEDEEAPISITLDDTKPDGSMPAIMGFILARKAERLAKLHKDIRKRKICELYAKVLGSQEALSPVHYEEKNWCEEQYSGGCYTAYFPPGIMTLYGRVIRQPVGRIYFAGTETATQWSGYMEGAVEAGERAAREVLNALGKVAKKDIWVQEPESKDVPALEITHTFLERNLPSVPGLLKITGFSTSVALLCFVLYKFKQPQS
pIC50: −log10 of the molar value.

structure_string=O=C(/C=C/c1cc(O)c(O)c([N+](=O)[O-])c1)c1ccccc1 observed_property=pIC50 result="< 4.30"

Q) Value lookup for pIC50; key = COc1cc(C(=O)/C=C/c2cc(O)c(O)c([N+](=O)[O-])c2)cc(OC)c1OC
A) < 4.30

###

Kindly state IC50 for each of the entries shown.
Target chain: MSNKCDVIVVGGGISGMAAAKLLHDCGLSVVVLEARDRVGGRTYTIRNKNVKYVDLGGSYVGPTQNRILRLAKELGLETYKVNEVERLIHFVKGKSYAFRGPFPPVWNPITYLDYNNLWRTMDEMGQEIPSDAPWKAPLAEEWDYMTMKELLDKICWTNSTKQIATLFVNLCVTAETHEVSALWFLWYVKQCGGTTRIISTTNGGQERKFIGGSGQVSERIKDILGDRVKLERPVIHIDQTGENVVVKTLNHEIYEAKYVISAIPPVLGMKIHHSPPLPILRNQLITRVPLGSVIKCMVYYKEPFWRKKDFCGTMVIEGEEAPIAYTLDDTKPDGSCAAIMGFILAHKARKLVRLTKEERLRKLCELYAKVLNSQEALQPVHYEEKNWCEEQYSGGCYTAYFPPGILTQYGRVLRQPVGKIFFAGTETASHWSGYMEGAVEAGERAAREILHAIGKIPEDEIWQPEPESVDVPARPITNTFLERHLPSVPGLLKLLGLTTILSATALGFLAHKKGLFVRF

structure_string=O=C(/C=C/c1cc(O)c(O)c([N+](=O)[O-])c1)c1ccccc1 result="> 50 µM"

Here's the next entry for you.
Q) Value lookup for IC50; key = COc1cc(C(=O)/C=C/c2cc(O)c(O)c([N+](=O)[O-])c2)cc(OC)c1OC
A) > 50 µM
